- SUBJECT_OF_TEST: Translocator protein (Mus musculus) (UniProt P50637)
- Sequence (P50637 whole entry, looked up): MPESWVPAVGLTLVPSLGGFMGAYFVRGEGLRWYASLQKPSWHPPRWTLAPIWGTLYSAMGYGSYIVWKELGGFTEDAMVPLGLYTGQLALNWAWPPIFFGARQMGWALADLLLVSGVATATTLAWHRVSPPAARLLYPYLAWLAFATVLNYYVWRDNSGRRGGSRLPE
- ASSAY_METHOD_TEXT: Inhibition of TSPO in mouse HT22 cells assessed as protection against amyloid beta (1 to 42)-induced mitochondrial membrane potential loss by measuring recovery of mitochondrial membrane potential at 5 uM preincubated for 10 mins followed by amyloid beta (1 to 42) addition measured every 1 hr for 3 hrs by JC1 staining based fluorescence assay relative to control
- Type: cell-based
- Set-up: scale not given: the % may be the effect or the level left
- MEASUREMENT_PARAMETERS: HT-22
Please provide measured Activity for the entries that follow.
Numeric answer only, unit % assumed.

# input Item under review: `Cc1cccc(C(C)(C)C)c1NC(=O)Cn1c(-c2ccccc2)nc2ccccc21` . Reported Activity?
# output 65

# input Please give the measured Activity for this molecule: `O=C(Cn1c(Cc2ccccc2)nc2ccccc21)Nc1cc(Oc2ccc(-c3ccccc3)cc2)ccc1F`
# output 0

# input I have this molecule here, `O=C(Cn1c(-c2ccccc2)nc2ccccc21)Nc1cc(Cl)cc(Cl)c1` , and I need its recorded Activity.
# output 69

# input Sample `COc1ccc(NC(=O)Cn2c(SCc3ccc(C)cc3)nc3ccncc32)c(OC)c1OC` — what was its Activity?
# output 27

# input Given `COc1ccc(OC)c(-c2nc3ccccc3n2CC(=O)Nc2cc(C(C)C)ccc2C)c1` , state its recorded Activity.
# output 41

# input Please give the measured Activity for this molecule: `Cc1ccc(C(C)C)c(OC[C@H](O)Cn2c(Cc3ccccc3)nc3ccccc32)c1`
# output 53

# input Fill in the blank: the reported Activity of `O=C(NCCCc1cccs1)c1ccc(Cn2c(SCc3ccc(F)cc3)nc3ncccc32)cc1` is ____.
# output 46

# input Which measured Activity value corresponds to `Cc1ccc(Cn2c(SCc3ccc(F)cc3)nc3ncccc32)cc1` ?
# output 15

# input Given `O=C(NCCCN1CCCC1)c1ccc(Cn2c(Cc3c(Cl)cccc3Cl)nc3ccccc32)cc1` , state its recorded Activity.
# output 79

# input State the recorded Activity for this entry: `CN1CCN(CCCNC(=O)c2ccc(Cn3c(Cc4c(Cl)cccc4Cl)nc4ccccc43)cc2)CC1`
# output 86

# input Entry `Cc1ccc(C(C)C)cc1NC(=O)Cc1nc2ccccc2n1Cc1ccc(C(=O)NCCCN2CCCCC2)cc1` : reported Activity = ?
# output 80

# input Dear colleague, I am looking for the recorded Activity of the following molecule: `Cc1ccc(C(C)C)cc1NC(=O)Cn1c(-c2ccccc2)nc2ccccc21`
# output 63

# input Give its Activity value. Item: `CC(C)(C)c1cc(NC(=O)Cn2c(-c3ccccc3)nc3ccccc32)cc(C(C)(C)C)c1`
# output 86

# input Fill in the blank: the reported Activity of `C=CCN(C(=O)Cn1c(SCc2ccc(F)cc2)nc2ccncc21)c1ccccc1` is ____.
# output -1

# input Item under review: `O=C(CCn1c(-c2ccc(Cl)cc2)nc2ccccc21)Nc1ccccc1F` . Reported Activity?
# output 65

# input Given the molecule `Cc1ccc(C(C)C)cc1NC(=O)Cn1c(-c2cc(Cl)ccc2Cl)nc2ccc(Cl)cc21` , what is its reported Activity?
# output 87

# input So what's the measured Activity for this one? CCN1CCCC1CNC(=O)c1ccc(Cn2c(SCc3ccc(F)cc3)nc3ncccc32)cc1 (configuration not stated)
# output 61

* * *

Assign viability at 24 h, 5 µM to each entry below.
- ASSAY_METHOD_TEXT: Cytotoxicity against mouse HT22 cells assessed as cell viability at 5 uM after 24 hrs by MTT assay relative to control
- Type: toxicity, HT-22
- MEASUREMENT_PARAMETERS: read-out: Activity

# input viability at 24 h, 5 µM for `NC(=O)CN1CCCC1=O` ?
# output 88 to 132%

# input Form field: reported viability at 24 h, 5 µM of `Cc1cccc(C(C)(C)C)c1NC(=O)Cn1c(-c2ccccc2)nc2ccccc21`
# output 65 to 95%

# input Which viability at 24 h, 5 µM value belongs to `COc1ccc(OC)c(Cc2nc3ccccc3n2CC(=O)Nc2cc(Cl)cc(Cl)c2)c1` ?
# output 81 to 82%

# input Fill blank: measured viability at 24 h, 5 µM of the compound `COc1ccc(OC)c(Cc2nc3ccccc3n2CC(=O)Nc2cc(C(C)(C)C)cc(C(C)(C)C)c2)c1` is ____.
# output 99 to 112%

# input Given `O=C(NCCCN1CCCC1)c1ccc(Cn2c(Cc3c(Cl)cccc3Cl)nc3ccccc32)cc1` , state its recorded viability at 24 h, 5 µM.
# output 100 to 101%

# input Which value of viability at 24 h, 5 µM has been reported for `Cc1ccc(C(C)C)cc1NC(=O)Cn1c(Cc2c(Cl)cccc2Cl)nc2ccccc21` in the records?
# output 88 to 109%
